Measured values drawn from patent US20220064312A1 for this set.

Biological target: human CCR8 (human) (UniProt P51685)
Sequence (P51685 whole entry): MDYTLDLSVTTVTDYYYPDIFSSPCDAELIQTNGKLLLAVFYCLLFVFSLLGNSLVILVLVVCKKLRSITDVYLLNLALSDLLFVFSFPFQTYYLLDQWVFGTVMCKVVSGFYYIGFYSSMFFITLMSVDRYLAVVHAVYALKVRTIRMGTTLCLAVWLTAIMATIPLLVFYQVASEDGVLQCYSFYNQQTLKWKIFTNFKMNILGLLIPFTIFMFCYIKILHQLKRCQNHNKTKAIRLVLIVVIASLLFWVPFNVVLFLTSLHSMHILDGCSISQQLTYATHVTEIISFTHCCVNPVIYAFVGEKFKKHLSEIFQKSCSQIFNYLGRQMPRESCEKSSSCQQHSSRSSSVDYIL
Experiment: cell-based or functional assay
measurement-label: IC50 ratio (WT IC50/mutant IC50)

**Q:** Identify measured IC50 ratio (WT IC50/mutant IC50) corresponding to h10A11 IGKV4-1/IGHV3-73 M100fL (antibody, name in Kabat numbering, V domains shown) VH: EVQLVESGGGLVQPGGSLKLSCAASGFAFNTYALYWVRQASGKGLEWVGRIRSKSNNYATYYADSVKDRFTISRDDSKNTAYLQMNSLKTEDTAVYYCTRARFYYSDYGYALDYWGQGTLVTVSS VL: DIVMTQSPDSLAVSLGERATINCRSSKSLLHSNGNTYLYWYQQKPGQPPKLLIYRMSNLASGVPDRFSGSGSGTDFTLTISSLQAEDVAVYYCMQHLEYPLTFGQGTKLEIKR
**A:** 0.72
